assay: RP, Thermo Scientific Acclaim RSLC 120 C18, 100 × 2.1 mm, 2.2 µm, 30 °C, 0.2 mL/min, estimated dead time 1.1 min; A: 90% water + 10% methanol + 0.01% formic acid + 5 mM ammonium formate, pH 3.61; B: methanol + 0.01% formic acid + 5 mM ammonium formate, pH 3.61; gradient (min/%B) 0/1 1/1 2/39 13/99.9 15/99.9 15.1/1 20.1/1; details: stereoisomer not certain
// reported LC retention time per item
Write the number in min without appending the unit.

# count of solved cases: 4
compound: CCCCCCCCc1ccc(OCCO)cc1
test_value: 12.4
--
compound: CN1C2CCC1C(C(=O)O)C(OC(=O)c1ccccc1)C2 (stereo not given)
test_value: 4.68
--
compound: CC1C2Cc3ccc(O)cc3C1(C)CCN2CCc1ccccc1 (stereo not given)
test_value: 6.08
--
compound: COc1cc(SC(C)C)c(OC)cc1CCN
test_value: 6.69

Measured LC retention time of CC12CCC3=C4CCC(=O)C=C4CCC3C1CCC2(O)CC#N (stereo not given) : 8.09

Measured LC retention time of `Cn1c([N+](=O)[O-])cnc1COC(N)=O` : 3.55

Measured LC retention time of CSc1ccc(CC(C)N)cc1 (stereo not given) : 5.24

Measured LC retention time of COc1ccc2c3c1OC1CC(O)C=CC31CCN(C)C2 (stereo not given) : 2.99

Measured LC retention time of `CCCCCn1nc(C(=O)Oc2cccc3cccnc23)c2ccccc21` : 11.4

Measured LC retention time of CCN(C)C(=O)Oc1cccc(C(C)N(C)C)c1 (stereo not given) : 4.74
